Origin of the recorded values: FireProtDB

B1: Ribonuclease, P00648 (parent)
chain: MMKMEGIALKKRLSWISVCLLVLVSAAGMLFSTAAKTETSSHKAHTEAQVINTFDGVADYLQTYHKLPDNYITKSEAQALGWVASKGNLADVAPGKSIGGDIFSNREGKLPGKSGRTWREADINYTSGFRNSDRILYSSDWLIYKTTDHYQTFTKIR

Variants of: B1
MEASUREMENT SETUP: Bacillus amyloliquefaciens; pH 6.3; 25 °C; Urea; Fluorescence; MES 1 M; structure 1BNI; whole UniProt chain shown
Documented unfolding free energy across a set of variants
Don't forget the unit after the number, please.

MUTATION NAME	unfolding free energy
H65A	6.75 kcal/mol
K74A	9.43 kcal/mol
A79G	7.99 kcal/mol

Query: unfolding free energy lookup needed for `H65G` , thanks.
Result: 8.01 kcal/mol
